Details: in water, 308.15 K
Readout Kind: solubility (mole fraction)
Reply with just the number.

Exercise: What value of solubility (mole fraction) has been reported for the following compound? CN1CC(=O)N2[C@H](c3ccc4c(c3)OCO4)c3[nH]c4ccccc4c3C[C@@H]2C1=O
Key: 1.02e-06

====

Settings: in transcutol, 303.15 K
Readout Kind: solubility (mole fraction)

Exercise: May I ask what solubility (mole fraction) has been recorded for CN1CC(=O)N2[C@H](c3ccc4c(c3)OCO4)c3[nH]c4ccccc4c3C[C@@H]2C1=O ?
Key: 0.00973

====

Details: in transcutol, 323.15 K
Readout Kind: solubility (mole fraction)
Write the number on its own, no unit after it.

Exercise: Dear colleague, I am looking for the recorded solubility (mole fraction) of the following compound: CN1CC(=O)N2[C@H](c3ccc4c(c3)OCO4)c3[nH]c4ccccc4c3C[C@@H]2C1=O
Key: 0.0149

====

Details: in water, 323.15 K
Readout Kind: solubility (mole fraction)

Exercise: Find the recorded solubility (mole fraction) belonging to CN1CC(=O)N2[C@H](c3ccc4c(c3)OCO4)c3[nH]c4ccccc4c3C[C@@H]2C1=O and report it.
Key: 2.26e-06

====

Details: in water, 333.15 K
Readout Kind: solubility (mole fraction)
Answer with a bare number; do not write a unit.

Exercise: Endpoint output: solubility (mole fraction) of CN1CC(=O)N2[C@H](c3ccc4c(c3)OCO4)c3[nH]c4ccccc4c3C[C@@H]2C1=O . Value?
Key: 3.45e-06

====

Settings: in transcutol, 313.15 K
Readout Kind: solubility (mole fraction)

Exercise: I am curious: what solubility (mole fraction) value has been reported for CN1CC(=O)N2[C@H](c3ccc4c(c3)OCO4)c3[nH]c4ccccc4c3C[C@@H]2C1=O ?
Key: 0.0119

====

Details: in water, 318.15 K
Readout Kind: solubility (mole fraction)

Exercise: State the recorded solubility (mole fraction) for this entry: CN1CC(=O)N2[C@H](c3ccc4c(c3)OCO4)c3[nH]c4ccccc4c3C[C@@H]2C1=O
Key: 1.75e-06

====

Conditions: in transcutol, 333.15 K
Readout Kind: solubility (mole fraction)
Give your answer as a number; write no unit.

Exercise: Query (compound): CN1CC(=O)N2[C@H](c3ccc4c(c3)OCO4)c3[nH]c4ccccc4c3C[C@@H]2C1=O ; field requested: solubility (mole fraction)
Key: 0.0182

====

Conditions: in water, 298.15 K
Readout Kind: solubility (mole fraction)
Respond numerically, and do not add a unit to the figure.

Exercise: # input molecule: CN1CC(=O)N2[C@H](c3ccc4c(c3)OCO4)c3[nH]c4ccccc4c3C[C@@H]2C1=O ; wanted: its solubility (mole fraction)
Key: 5.74e-07
